Where these numbers come from: patent US20180055844A1

assay remarks: Pharmacokinetics in monkeys on Day 1 and Day 27
details: female, monkey, in vivo, 0.15 mg/kg, Day 27, 0.15 mg/kg, female; read-out: AUC0-24

{"molecule": "Cc1nc2cccc(N)c2c(=O)n1C1CCC(=O)NC1=O (stereo not shown) [compound of Formula I]", "AUC(0-t) [ng·h/mL]": 450}

---

assay remarks: Pharmacokinetics in monkeys on Day 1 and Day 27
details: female, monkey, in vivo, 0.15 mg/kg, Day 27, 0.15 mg/kg, female

{"compound": "Cc1nc2cccc(N)c2c(=O)n1C1CCC(=O)NC1=O (stereo not shown)", "u": "ng/mL", "Cmax": 57}

---

assay remarks: Pharmacokinetics in monkeys on Day 1 and Day 27
details: male, monkey, in vivo, 1.5 mg/kg, Day 27, 1.5 mg/kg, male; read-out: AUC0-24
readout name: AUC(0-t)

{"molecule": "Cc1nc2cccc(N)c2c(=O)n1C1CCC(=O)NC1=O (stereo not shown) [compound of Formula I]", "readout name": "AUC(0-t)", "observed result": "5700 ng·h/mL"}

---

assay remarks: Pharmacokinetics in monkeys on Day 1 and Day 27
details: female, monkey, in vivo, 15 mg/kg, Day 27, 15 mg/kg, female
readout name: Cmax (ng/mL)

{"compound": "Cc1nc2cccc(N)c2c(=O)n1C1CCC(=O)NC1=O (stereo not shown) [compound of Formula I]", "observed result": 7000}

---

assay remarks: Pharmacokinetics in monkeys on Day 1 and Day 27
details: female, monkey, in vivo, 1.5 mg/kg, Day 1, 1.5 mg/kg, female; read-out: AUC0-24

{"compound": "Cc1nc2cccc(N)c2c(=O)n1C1CCC(=O)NC1=O (stereo not shown)", "AUC(0-t) [ng·h/mL]": 4100}

---

assay remarks: Pharmacokinetics in monkeys on Day 1 and Day 27
details: male, monkey, in vivo, 15 mg/kg, Day 1, 15 mg/kg, male

{"molecule": "Cc1nc2cccc(N)c2c(=O)n1C1CCC(=O)NC1=O (stereo not shown)", "u": "h", "Tmax": 4}

---

assay remarks: Pharmacokinetics in monkeys on Day 1 and Day 27
details: male, monkey, in vivo, 1.5 mg/kg, Day 27, 1.5 mg/kg, male

{"compound": "Cc1nc2cccc(N)c2c(=O)n1C1CCC(=O)NC1=O (stereo not shown)", "Tmax": "2 h"}

---

assay remarks: Pharmacokinetics in monkeys on Day 1 and Day 27
details: male, monkey, in vivo, 0.15 mg/kg, Day 27, 0.15 mg/kg, male; read-out: AUC0-24

{"compound": "Cc1nc2cccc(N)c2c(=O)n1C1CCC(=O)NC1=O (stereo not shown)", "AUC(0-t) / ng·h/mL": 570}

---

System: lipopolysaccharide-stimulated human peripheral blood mononuclear cells (hPBMCs)
assay remarks: PBMC cytokine profiling
Type: cell-based
details: LPS-stimulated hPBMC, read-out: MIP-1β production IC50

{"compound": "Cc1nc2cccc(N)c2c(=O)n1C1CCC(=O)NC1=O (stereo not shown)", "IC50": "> 10 µM"}

---

assay remarks: Oral pharmacokinetics
Format: in vivo
details: cynomolgus monkey, plasma; Cyno monkey; read-out: CLp

{"compound": "Cc1nc2cccc(N)c2c(=O)n1C1CCC(=O)NC1=O (stereo not shown) [compound of Formula I]", "clearance [mL/min/kg]": 1.2}
